Here the recorded MIC S. pullorum 7913 is given for each entry.
# Tested on: S. pullorum 7913
# test: MIC, modified microtiter dilution
# Type: cell-based, Salmonella pullorum
# testContext: MHB, 2–7 × 10^5 CFU/ml, 37°C, 24 h, no turbidity, at least three independent repeats
Positions of bridges follow the written chain, without caps; N, C: chain ends. Residues, ends and D or L forms follow the SMILES beside them.

A selection of reference data follows.
C[C@H](NC(=O)[C@H](C)NC(=O)[C@H](Cc1c[nH]c2ccccc12)NC(=O)[C@H](Cc1c[nH]c2ccccc12)NC(=O)[C@H](Cc1c[nH]c2ccccc12)NC(=O)[C@H](CCCNC(=N)N)NC(=O)[C@@H]1CSSC[C@H](N)C(=O)N[C@@H](C)C(=O)N[C@@H](CO)C(=O)N[C@@H](Cc2ccc(O)cc2)C(=O)N[C@@H](Cc2ccccc2)C(=O)N1)C(N)=O [Peptide S3] (H-CASYFCRWWWAA-NH2; disulfide 1-6; N-terminus assumed) :: >64 µM
CC(C)C[C@H](NC(=O)[C@H](CC(C)C)NC(=O)[C@H](Cc1c[nH]c2ccccc12)NC(=O)[C@H](Cc1c[nH]c2ccccc12)NC(=O)[C@H](Cc1c[nH]c2ccccc12)NC(=O)[C@H](CCCNC(=N)N)NC(=O)[C@H](CS)NC(=O)[C@H](Cc1ccccc1)NC(=O)[C@H](Cc1ccc(O)cc1)NC(=O)[C@H](CO)NC(=O)[C@H](C)NC(=O)[C@@H](N)CS)C(N)=O [Peptide S4] (H-CASYFCRWWWLL-NH2; N-terminus assumed) :: >64 µM
C[C@@H]1NC(=O)[C@@H](N)CSSC[C@@H](C(=O)N[C@@H](CCCNC(=N)N)C(=O)N[C@@H](Cc2c[nH]c3ccccc23)C(=O)N[C@@H](Cc2c[nH]c3ccccc23)C(=O)N[C@@H](Cc2c[nH]c3ccccc23)C(=O)N[C@@H](CCCNC(=N)N)C(=O)N[C@@H](CCCNC(=N)N)C(N)=O)NC(=O)[C@H](Cc2ccccc2)NC(=O)[C@H](Cc2ccc(O)cc2)NC(=O)[C@H](CO)NC1=O [Peptide S1] (H-CASYFCRWWWRR-NH2; disulfide 1-6; N-terminus assumed) :: 8 µM

Let us move to another entry and its MIC S. pullorum 7913.
Q. Note down MIC S. pullorum 7913 recorded for CC(C)C[C@H](NC(=O)[C@H](CC(C)C)NC(=O)[C@H](Cc1c[nH]c2ccccc12)NC(=O)[C@H](Cc1c[nH]c2ccccc12)NC(=O)[C@H](Cc1c[nH]c2ccccc12)NC(=O)[C@H](CCCNC(=N)N)NC(=O)[C@@H]1CSSC[C@H](N)C(=O)N[C@@H](C)C(=O)N[C@@H](CO)C(=O)N[C@@H](Cc2ccc(O)cc2)C(=O)N[C@@H](Cc2ccccc2)C(=O)N1)C(N)=O [Peptide S2] (H-CASYFCRWWWLL-NH2; disulfide 1-6; N-terminus assumed)
A. >64 µM

----------
# Tested on: RAW 264.7 cells
# test: Cytotoxicity, MTT dye reduction assay
# Format: cell-based, murine
# testContext: highest concentration of 128 μM, 4 h, three independent repeats
Positions of bridges follow the written chain, without caps; N, C: chain ends. Residues, ends and D or L forms follow the SMILES beside them.
measure: RAW 264.7 cell survival rate (%)
State just the number; it will be interpreted in %.

Q. Name the recorded RAW 264.7 cell survival rate of the item C[C@@H]1NC(=O)[C@@H](N)CSSC[C@@H](C(=O)N[C@@H](CCCNC(=N)N)C(=O)N[C@@H](Cc2c[nH]c3ccccc23)C(=O)N[C@@H](Cc2c[nH]c3ccccc23)C(=O)N[C@@H](Cc2c[nH]c3ccccc23)C(=O)N[C@@H](CCCNC(=N)N)C(=O)N[C@@H](CCCNC(=N)N)C(N)=O)NC(=O)[C@H](Cc2ccccc2)NC(=O)[C@H](Cc2ccc(O)cc2)NC(=O)[C@H](CO)NC1=O [Peptide S1] (H-CASYFCRWWWRR-NH2; disulfide 1-6; N-terminus assumed) in your answer.
A. 86
